# Tested on: HCT-15 colon
# assay-remarks: NCI tumour cell line growth inhibition, 48 h; in the data active means GI50 below about 0.43 µM; inactive means the rest
Valid outcomes are listed here; reply with one: 1.0 for active, 0.0 for inactive

What outcome does the record of this test show for C=C1C(=O)O[C@H]2[C@H]1CC/C(COC(=O)N[C@H]1C[C@H](O[C@H]3C[C@](O)(C(=O)CO)Cc4c(O)c5c(c(O)c43)C(=O)c3c(OC)cccc3C5=O)O[C@@H](C)[C@H]1O)=C\CC[C@@]1(C)O[C@@H]21 ? 0.0

What outcome does the record of this test show for CCCCCCNCCCNc1c2cc(OC)ccc2nc2cccc([N+](=O)[O-])c12 ? 0.0

What outcome does the record of this test show for COc1cc([C@@H]2c3cc4c(cc3[C@H](OC(C)=O)[C@H]3COC(=O)[C@@H]23)OCO4)cc(OC)c1OC ? 1.0

What outcome does the record of this test show for COc1ccc(-c2nc(-c3nc4cc(Cl)c(F)cc4[nH]3)c3ccccn23)cc1 ? 0.0

What outcome does the record of this test show for COc1cc(C2=NN(C(C)=O)C(c3cc(OC)c(OC)c(OC)c3)C2)ccc1O (centres undefined) ? 1.0

What outcome does the record of this test show for N=c1ccc2nc3ccc(N)cc3sc-2c1 ? 0.0

What outcome does the record of this test show for COc1ccc(-c2c(C#N)c(N)nc(N3CCOCC3)c2C#N)cc1 ? 0.0

What outcome does the record of this test show for O=C(c1ccc2ccccc2c1)c1nc2cc(F)ccc2[n+]([O-])c1C(F)(F)F ? 0.0

What outcome does the record of this test show for CC(=O)OC(C(=O)[O][Sn]([CH3])([CH3])[CH3])c1ccccc1 (centres undefined) ? 0.0

What outcome does the record of this test show for COc1cc(OCc2cccc(-c3ccccc3)c2C)cc(OC)c1CN1CCCCC1C(=O)NCCOCCOCCN (centres undefined) ? 0.0

What outcome does the record of this test show for Cc1cn(-c2cccc(NC(=O)c3ccc(C)c(Nc4nccc(-c5cccnc5)n4)c3)c2)cn1 ? 0.0

What outcome does the record of this test show for CC(=O)/C=C/c1ccc(Nc2c3ccccc3nc3occ(Cl)c23)cc1 ? 0.0

What outcome does the record of this test show for O=C(CC1(O)C(=O)Nc2ccc(F)cc21)c1ccc(C(=O)NCC2CCC3(CC2)OOC2(CCCCC2)OO3)cc1 (centres undefined) ? 0.0

What outcome does the record of this test show for C=C(CN1CCc2c([nH]c3ccccc23)C1)c1ccc(C(=O)Nc2ccccc2N)cc1 ? 0.0
